Measured pIC50 accompanies every entry in the list below.
# tested target: integrin α4β7 (RPMI8866 human cells adhering to MAdCAM-1) (Homo sapiens, UniProt P13612+P26010)
# Construct: RMP18866 cells, which express integrin α4β7; host or cells: RPMI8866
# Sequence (P13612 34-1032): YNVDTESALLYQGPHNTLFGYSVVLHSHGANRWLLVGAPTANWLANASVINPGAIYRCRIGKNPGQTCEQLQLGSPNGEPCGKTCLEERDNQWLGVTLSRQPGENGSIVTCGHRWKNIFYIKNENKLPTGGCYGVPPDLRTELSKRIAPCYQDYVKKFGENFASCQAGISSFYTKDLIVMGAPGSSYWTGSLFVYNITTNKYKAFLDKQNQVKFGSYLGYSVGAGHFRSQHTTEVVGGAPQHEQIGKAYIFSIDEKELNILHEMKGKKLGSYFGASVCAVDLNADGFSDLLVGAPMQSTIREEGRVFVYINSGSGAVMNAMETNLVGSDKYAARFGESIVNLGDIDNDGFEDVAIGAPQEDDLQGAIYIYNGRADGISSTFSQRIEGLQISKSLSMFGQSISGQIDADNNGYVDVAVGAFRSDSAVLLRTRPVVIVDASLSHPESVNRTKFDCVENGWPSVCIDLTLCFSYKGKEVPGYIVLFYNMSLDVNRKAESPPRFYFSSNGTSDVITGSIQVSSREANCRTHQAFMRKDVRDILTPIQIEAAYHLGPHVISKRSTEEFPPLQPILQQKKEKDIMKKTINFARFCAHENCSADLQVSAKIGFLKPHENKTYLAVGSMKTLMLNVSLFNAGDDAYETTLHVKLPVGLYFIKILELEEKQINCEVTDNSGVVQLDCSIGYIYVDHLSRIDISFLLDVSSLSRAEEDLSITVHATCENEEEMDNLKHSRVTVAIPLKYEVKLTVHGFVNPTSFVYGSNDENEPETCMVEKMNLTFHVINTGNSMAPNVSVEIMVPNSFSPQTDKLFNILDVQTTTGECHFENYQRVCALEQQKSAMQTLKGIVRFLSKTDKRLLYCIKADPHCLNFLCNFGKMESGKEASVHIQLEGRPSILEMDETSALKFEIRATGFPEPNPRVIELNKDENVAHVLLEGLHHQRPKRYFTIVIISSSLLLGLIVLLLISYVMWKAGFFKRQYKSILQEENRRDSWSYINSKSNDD
# Sequence (P26010 20-798): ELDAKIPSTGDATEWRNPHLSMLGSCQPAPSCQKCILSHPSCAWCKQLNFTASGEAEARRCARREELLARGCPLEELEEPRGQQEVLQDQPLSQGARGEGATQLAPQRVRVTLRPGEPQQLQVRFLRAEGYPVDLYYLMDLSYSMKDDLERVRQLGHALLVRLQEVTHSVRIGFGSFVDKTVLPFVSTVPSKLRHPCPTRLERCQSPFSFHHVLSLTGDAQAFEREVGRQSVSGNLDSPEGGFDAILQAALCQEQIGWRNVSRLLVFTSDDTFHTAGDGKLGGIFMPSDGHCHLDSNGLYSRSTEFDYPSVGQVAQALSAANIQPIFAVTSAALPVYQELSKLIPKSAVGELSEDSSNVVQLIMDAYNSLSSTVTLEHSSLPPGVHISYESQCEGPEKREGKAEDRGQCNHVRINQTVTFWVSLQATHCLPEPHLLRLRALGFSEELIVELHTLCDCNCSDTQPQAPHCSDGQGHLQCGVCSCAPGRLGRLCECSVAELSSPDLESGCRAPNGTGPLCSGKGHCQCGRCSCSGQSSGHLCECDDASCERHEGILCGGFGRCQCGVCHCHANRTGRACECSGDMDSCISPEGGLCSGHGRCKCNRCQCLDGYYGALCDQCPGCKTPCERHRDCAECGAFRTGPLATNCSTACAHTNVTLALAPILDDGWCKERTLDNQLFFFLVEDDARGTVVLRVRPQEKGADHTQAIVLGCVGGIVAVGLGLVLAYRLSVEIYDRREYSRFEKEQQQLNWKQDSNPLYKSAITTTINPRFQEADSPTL
# test protocol: Integrin α4β7-MAdCAM cell adhesion assay (RPMI8866 cells)
# Format: cell-based
# run parameters: RPMI8866 cells adhering to MAdCAM; read-out: RPMI8866 Adhesion α4β7/MAdCAM IC50
pIC50: −log10 of the molar value.

structure as smiles | pIC50
CC(C)C[C@@H]1NC(=O)c2ccc(-c3ccc(N4CCN(C(=O)CCOCCOCCOCCOCCOCCOCCOCCOCCOCCOCCOCCC(=O)N5CCN(c6ccc(-c7ccc8cc7CNC(=O)[C@@H]7CCCN7[C@H](C(=O)NC(C)(C)C)[C@H](C)NC(=O)[C@H]([C@@H](C)O)NC(=O)[C@H](CC(=O)O)NC(=O)[C@H](CC(C)C)NC8=O)cc6)CC5)CC4)cc3)c(c2)CNC(=O)[C@@H]2CCCN2[C@H](C(=O)NC(C)(C)C)[C@H](C)NC(=O)[C@H]([C@@H](C)O)NC(=O)[C@H](CC(=O)O)NC1=O | 7.35
CC(C)C[C@@H]1NC(=O)c2ccc(-c3ccc(N4CCN(C(=O)CC(=O)N5CCN(c6ccc(-c7ccc8cc7CNC(=O)[C@@H]7CCCN7[C@H](C(=O)NC(C)(C)C)[C@H](C)NC(=O)[C@H]([C@@H](C)O)NC(=O)[C@H](CC(=O)O)NC(=O)[C@H](CC(C)C)NC8=O)cc6)CC5)CC4)cc3)c(c2)CNC(=O)[C@@H]2CCCN2[C@H](C(=O)NC(C)(C)C)[C@H](C)NC(=O)[C@H]([C@@H](C)O)NC(=O)[C@H](CC(=O)O)NC1=O | 7.54
